Test: TK assay, intravenous mixture dosing: serum concentrations and noncompartmental analysis (sparse data)
Details: female, New Zealand white, rabbit, in vivo, iv, Serum concentration, rabbit 5, 0.75 h
Method: The experiment was carried out on thirty 10-wk old female New Zealand white rabbits (INRA 1777 line) weighing 2.37±0.14kg . […] Residual concentrations of the compounds, and their possible evolution over time, were determined by sampling six entirely untreated rabbits during the TK study on the day of drug administrations, then 14 d and 28 d later. The volume administered was adjusted to the animal’s body weight (BW) recorded the day before. […]
experimental_readout: concentration at 0.75 h (nM)
// units = nM; emit number, no label

Given item `O=C(O)C(F)(F)C(F)(F)C(F)(F)C(F)(F)C(F)(F)C(F)(F)C(F)(F)F` , the value recorded as its concentration at 0.75 h is 1860

###

assay: TK assay, oral mixture dosing: serum concentrations and noncompartmental analysis (sparse data); conditions: serum, oral mixture dosing, NCA, n=12; MEHP after oral DEHP
Field: AUC0−inf. Provide a value for each of the molecules that follow.
// units = µmol·h/L; emit number, no label

Given item `O=S(=O)(c1ccc(O)cc1)c1ccc(O)cc1` , the value recorded as its AUC0−inf is 3.38

Given item CCCCC(CC)COC(=O)c1ccccc1C(=O)O (stereo not shown) [MEHP, mono(2-ethylhexyl)phthalate] , the value recorded as its AUC0−inf is 65.2

Given item O=C(O)[C@H]1O[C@@H](Oc2ccc(S(=O)(=O)c3ccc(O)cc3)cc2)[C@H](O)[C@@H](O)[C@@H]1O [BPSG, bisphenol S glucuronide] , the value recorded as its AUC0−inf is 15.8

###

experiment: in vivo; conditions: female, New Zealand white, rabbit, in vivo, iv, Serum concentration
Field: concentration at 24.03 h. Provide a value for each of the compounds that follow.
Returns: string containing the number followed by the unit.

Given item `Clc1c(Cl)c(Cl)c(Cl)c(Cl)c1Cl` , the value recorded as its concentration at 24.03 h is 6.1 nM

Given item `ClC(Cl)=C(c1ccc(Cl)cc1)c1ccc(Cl)cc1` , the value recorded as its concentration at 24.03 h is 47 nM

###

assay: Nonlinear mixed effect (NLME) compartmental modeling of merged IV and oral serum concentrations; details: female, New Zealand white (INRA 1777 line), rabbit, serum, other: intravenous and oral data merged
experimental_readout: k el (s⁻¹)
// units = s⁻¹; emit number, no label

Given item `Cl[C@H]1[C@H](Cl)[C@@H](Cl)[C@H](Cl)[C@@H](Cl)[C@@H]1Cl` , the value recorded as its k el is 4.69e-06

###

test: Nonlinear mixed effect (NLME) compartmental modeling of merged IV and oral serum concentrations; conditions: population primary parameter, typical value, mean
Field: tvK21 (distribution rate constant). Provide a value for each of the molecules that follow.
// units = h⁻¹; emit number, no label

Given item Clc1c(Cl)c(Cl)c(Cl)c(Cl)c1Cl [HCB, hexachlorobenzene] , the value recorded as its tvK21 (distribution rate constant) is 0.03851

Given item ClC(Cl)=C(c1ccc(Cl)cc1)c1ccc(Cl)cc1 [pp′DDE] , the value recorded as its tvK21 (distribution rate constant) is 0.00729

Given item O=S(=O)(O)C(F)(F)C(F)(F)C(F)(F)C(F)(F)C(F)(F)C(F)(F)C(F)(F)C(F)(F)F [nPFOS] , the value recorded as its tvK21 (distribution rate constant) is 0.581

Given item Brc1ccc(Oc2ccc(Br)cc2Br)c(Br)c1 [BDE-47, 2,2′,4,4′-tetrabromodiphenyl ether] , the value recorded as its tvK21 (distribution rate constant) is 0.009154

Given item Cl[C@H]1[C@H](Cl)[C@@H](Cl)[C@H](Cl)[C@@H](Cl)[C@@H]1Cl [β-HCH, β-hexachlorocyclohexane] , the value recorded as its tvK21 (distribution rate constant) is 0.0110

Given item O=C(O)C(F)(F)C(F)(F)C(F)(F)C(F)(F)C(F)(F)C(F)(F)C(F)(F)F [PFOA, perfluorooctanoic acid] , the value recorded as its tvK21 (distribution rate constant) is 0.127
